Consider the following molecules; for each one, report its pIC50.
# target.under.test: human ROR1 (Homo sapiens)
# Construct: host or cells: HEK 293T cells, Tet-on system induced with doxycycline
# Sequence (Q01973 30-937): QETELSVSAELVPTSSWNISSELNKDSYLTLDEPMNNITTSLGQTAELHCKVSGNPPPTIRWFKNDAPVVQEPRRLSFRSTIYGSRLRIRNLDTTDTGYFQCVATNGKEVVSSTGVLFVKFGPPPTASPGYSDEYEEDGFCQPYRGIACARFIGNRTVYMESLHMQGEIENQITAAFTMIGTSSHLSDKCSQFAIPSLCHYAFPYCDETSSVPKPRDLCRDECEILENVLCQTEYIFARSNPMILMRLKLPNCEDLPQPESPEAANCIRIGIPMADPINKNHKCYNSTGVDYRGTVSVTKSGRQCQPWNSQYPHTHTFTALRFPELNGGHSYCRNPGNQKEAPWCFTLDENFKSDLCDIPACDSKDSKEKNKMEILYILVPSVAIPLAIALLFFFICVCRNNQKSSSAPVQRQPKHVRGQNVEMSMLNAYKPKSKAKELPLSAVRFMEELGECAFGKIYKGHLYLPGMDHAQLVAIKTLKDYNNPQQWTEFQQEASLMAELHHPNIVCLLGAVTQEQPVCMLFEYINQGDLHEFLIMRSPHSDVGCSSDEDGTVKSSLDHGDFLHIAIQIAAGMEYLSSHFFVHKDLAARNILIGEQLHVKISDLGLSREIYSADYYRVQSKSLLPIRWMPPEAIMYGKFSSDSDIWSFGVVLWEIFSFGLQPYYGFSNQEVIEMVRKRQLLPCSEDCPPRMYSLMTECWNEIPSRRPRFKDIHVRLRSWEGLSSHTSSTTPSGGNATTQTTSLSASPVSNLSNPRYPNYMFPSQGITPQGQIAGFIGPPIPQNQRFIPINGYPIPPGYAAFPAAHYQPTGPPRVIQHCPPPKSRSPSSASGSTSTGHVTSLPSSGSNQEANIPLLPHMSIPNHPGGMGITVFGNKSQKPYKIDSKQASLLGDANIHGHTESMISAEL
# assay.notes: ROR1 high content cell-based binding assay
# study.conditions: read-out: ROR1 Binding 293T Human HC Cell Based Assay IC50
Positions of bridges follow the written chain, without caps; N, C: chain ends. Non-standard residues stand in square brackets, D forms with d. Residues, ends and D or L forms follow the SMILES beside them. NMeF = CN[C@@H](Cc1ccccc1)C(=O)O; NMeNle = CCCC[C@H](NC)C(=O)O; NMeA = CN[C@@H](C)C(=O)O
Give bare numbers, as −log10 of the molar value.

Example entries and their recorded answers appear below.
• CC(C)C[C@@H]1NC(=O)[C@H](Cc2ccc(O)cc2)NC(=O)[C@H](Cc2ccccc2)NC(=O)CSC[C@@H](C(=O)NCC(N)=O)NC(=O)[C@H](CC(C)C)NC(=O)[C@H](Cc2ccccc2)N(C)C(=O)[C@H](Cc2ccc(O)cc2)NC(=O)[C@H](Cc2c[nH]c3ccccc23)NC(=O)CNC(=O)[C@H](CO)NC(=O)[C@H](CCCCN)NC(=O)[C@H](C(C)C)NC1=O [Example 1029] ({CH2CO}-FYLVKSGWY[NMeF]LCG-NH2; thioether N-12) = 6.59
• CC(C)C[C@@H]1NC(=O)[C@H](CCCNC(=N)N)NC(=O)[C@H](Cc2ccccc2)NC(=O)CSC[C@@H](C(=O)NCC(N)=O)NC(=O)[C@H](CC(C)C)NC(=O)[C@H](Cc2ccccc2)N(C)C(=O)[C@H](Cc2ccc(O)cc2)NC(=O)[C@H](Cc2c[nH]c3ccccc23)NC(=O)CNC(=O)[C@H](CO)NC(=O)[C@H](Cc2ccc(O)cc2)NC(=O)[C@H](C(C)C)NC1=O [Example 1051] ({CH2CO}-FRLVYSGWY[NMeF]LCG-NH2; thioether N-12) = 6.76
• CC(C)C[C@@H]1NC(=O)[C@H](Cc2ccccc2)N(C)C(=O)[C@H](Cc2ccc(O)cc2)NC(=O)[C@H](Cc2c[nH]c3ccccc23)NC(=O)CNC(=O)[C@H](CO)NC(=O)[C@H](Cc2ccc(O)cc2)NC(=O)[C@H](C(C)C)NC(=O)[C@H](CCC(=O)O)NC(=O)[C@H](Cc2ccc(O)cc2)NC(=O)[C@H](Cc2ccccc2)NC(=O)CSC[C@@H](C(=O)NCC(N)=O)NC1=O [Example 1052] ({CH2CO}-FYEVYSGWY[NMeF]LCG-NH2; thioether N-12) = 6.44
• CC(C)C[C@@H]1NC(=O)[C@H](Cc2ccccc2)N(C)C(=O)[C@H](Cc2ccc(O)cc2)NC(=O)[C@H](Cc2c[nH]c3ccccc23)NC(=O)CNC(=O)[C@H](CO)NC(=O)[C@H](Cc2ccc(O)cc2)NC(=O)[C@H](C(C)C)NC(=O)[C@@H]2CCCN2C(=O)[C@H](Cc2ccc(O)cc2)NC(=O)[C@H](Cc2ccccc2)NC(=O)CSC[C@@H](C(=O)NCC(N)=O)NC1=O [Example 1066] ({CH2CO}-FYPVYSGWY[NMeF]LCG-NH2; thioether N-12) = 8.30

Next:
Prompt: Record request: pIC50 value, item CCCC[C@H]1C(=O)N[C@H](C(=O)NCC(N)=O)CSCC(=O)N[C@@H](Cc2ccccc2)C(=O)N[C@@H](Cc2ccc(O)cc2)C(=O)N[C@@H](Cc2c[nH]c3ccccc23)C(=O)N[C@@H](CO)C(=O)N[C@@H](CO)C(=O)N[C@@H](CCCNC(=N)N)C(=O)N(C)[C@@H](C)C(=O)N[C@@H](Cc2c[nH]c3ccccc23)C(=O)N[C@@H](Cc2ccc(O)cc2)C(=O)N[C@@H](CC(C)C)C(=O)N1C [Example 1003] ({CH2CO}-FYWSSR[NMeA]WYL[NMeNle]CG-NH2; thioether N-12)
Response: 8.10
